Listing of recorded EC50 by entry.
tested on: TNF alpha release from human PBMCs; assay: Inhibition of TNF alpha release from human PBMCs; format: cell-based; settings: PBMC, LPS 1 μg/ml, 18 hours, AlphaLISA

Some solved entries appear below for comparison.
compound	EC50
Cc1ccc([C@@H](Oc2ccc(C(=O)N[C@@H]3CCN(C(=O)[C@H]4COC(=O)C4)C3)nc2)[C@H](C)NC(=O)C(F)(F)F)cc1 [Compound 65]	< 100 nM
C[C@H](NC(=O)c1ccno1)[C@H](Oc1ccc(C(=O)O[C@H]2CCCN(C(=O)[C@H]3COC(=O)C3)C2)cc1)c1ccc(C2CC2)cc1 [Compound 54]	< 100 nM

Query: GET /values?readout=EC50&item= C[C@H](NC(=O)C(C)(C)O)[C@H](Oc1ccc(C(=O)N[C@H]2CCCN(C(=O)[C@H]3COC(=O)C3)C2)nc1)c1ccc(C2CC2)cc1 [Compound 15]
Result: < 100 nM

----------
target: glucocorticoid receptor (GR), recombinant full-length receptor protein (Homo sapiens); construct: 4 nM recombinant, full-length receptor protein was incubated with increasing concentrations of GR ligand; assay: Glucocorticoid receptor binding assay (fluorescence polarization kit); conditions: 4 nM receptor, 2.5 nM Fluormone GS1 tracer, 2h room temperature, read-out: GR binding ABS IC50
Sequence (P04150 whole entry): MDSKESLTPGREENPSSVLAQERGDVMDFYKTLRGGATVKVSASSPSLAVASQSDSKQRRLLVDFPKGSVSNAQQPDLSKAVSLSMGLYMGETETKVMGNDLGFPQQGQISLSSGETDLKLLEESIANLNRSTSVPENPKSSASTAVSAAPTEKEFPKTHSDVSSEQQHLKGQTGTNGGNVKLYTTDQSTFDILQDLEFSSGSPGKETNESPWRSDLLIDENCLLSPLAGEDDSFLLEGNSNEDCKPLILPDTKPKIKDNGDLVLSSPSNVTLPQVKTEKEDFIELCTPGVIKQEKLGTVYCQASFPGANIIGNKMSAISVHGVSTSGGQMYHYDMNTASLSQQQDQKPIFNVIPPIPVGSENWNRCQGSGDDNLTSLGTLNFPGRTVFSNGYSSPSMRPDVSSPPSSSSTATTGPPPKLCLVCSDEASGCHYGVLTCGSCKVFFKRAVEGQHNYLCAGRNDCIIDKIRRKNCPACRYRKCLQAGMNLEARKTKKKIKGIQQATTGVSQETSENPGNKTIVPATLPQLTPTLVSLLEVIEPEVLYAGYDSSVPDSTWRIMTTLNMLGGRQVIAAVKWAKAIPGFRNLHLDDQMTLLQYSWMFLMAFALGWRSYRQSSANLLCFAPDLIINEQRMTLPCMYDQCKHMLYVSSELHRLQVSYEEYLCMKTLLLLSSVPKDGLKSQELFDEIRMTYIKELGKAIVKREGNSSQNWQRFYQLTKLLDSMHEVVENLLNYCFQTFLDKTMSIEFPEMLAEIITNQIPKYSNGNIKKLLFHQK
Listing of recorded IC50 by entry.

Some solved entries appear below for comparison.
smiles_str	endpoint_result
C[C@H](NC(=O)C(F)(F)F)[C@H](Oc1ccc(C(=O)N[C@H]2CCCN(C(=O)[C@H]3COC(=O)C3)C2)nc1)c1ccc(-c2ccccc2)cc1	< 100 nM
Cc1nc(C(=O)N[C@@H](C)[C@H](Oc2ccc(C(=O)O[C@H]3CCCN(C(=O)[C@H]4COC(=O)C4)C3)cc2)c2ccc(C3CC3)cc2)no1	< 100 nM
COCC(=O)N[C@@H](C)[C@H](Oc1ccc(C(=O)N[C@H]2CCCN(C(=O)[C@H]3COC(=O)C3)C2)nc1)c1ccc(C2CC2)cc1	100 to 300 nM
C[C@H](NC(=O)c1cnco1)[C@H](Oc1ccc(C(=O)N[C@H]2CCCN(C(=O)[C@H]3COC(=O)C3)C2)nc1)c1ccc(C2CC2)cc1	100 to 300 nM
C[C@H](NC(=O)c1nccs1)[C@H](Oc1ccc(C(=O)O[C@H]2CCCN(C(=O)[C@H]3COC(=O)C3)C2)cc1)c1ccc(C2CC2)cc1	< 100 nM
C[C@H](NC(=O)c1csnn1)[C@H](Oc1ccc(C(=O)O[C@H]2CCCN(C(=O)[C@H]3COC(=O)C3)C2)cc1)c1ccc(C2CC2)cc1	< 100 nM

Query: GET /values?readout=IC50&item= C[C@H](NC(=O)c1cscn1)[C@H](Oc1ccc(C(=O)N[C@H]2CCCN(C(=O)[C@H]3COC(=O)C3)C2)nc1)c1ccc(C2CC2)cc1
Result: < 100 nM

Query: GET /values?readout=IC50&item= Cc1sncc1C(=O)N[C@@H](C)[C@H](Oc1ccc(C(=O)O[C@H]2CCCN(C(=O)[C@H]3COC(=O)C3)C2)cc1)c1ccc(C2CC2)cc1
Result: < 100 nM

Query: GET /values?readout=IC50&item= Cc1nnsc1C(=O)N[C@@H](C)[C@H](Oc1ccc(C(=O)O[C@H]2CCCN(C(=O)[C@H]3COC(=O)C3)C2)cc1)c1ccc(C2CC2)cc1
Result: < 100 nM

Query: GET /values?readout=IC50&item= C[C@H](NC(=O)c1ccsn1)[C@H](Oc1ccc(C(=O)O[C@H]2CCCN(C(=O)[C@H]3COC(=O)C3)C2)cc1)c1ccc(C2CC2)cc1
Result: < 100 nM

Query: GET /values?readout=IC50&item= COCC(=O)N[C@@H](C)[C@H](Oc1ccc(C(=O)O[C@H]2CCCN(C(=O)[C@H]3COC(=O)C3)C2)cc1)c1ccc(C2CC2)cc1
Result: < 100 nM

Query: GET /values?readout=IC50&item= C[C@H](NC(=O)[C@@H]1CCCO1)[C@H](Oc1ccc(C(=O)N[C@H]2CCCN(C(=O)[C@H]3COC(=O)C3)C2)nc1)c1ccc(C2CC2)cc1
Result: 100 to 300 nM
